Source of measurements: PubChem BioAssay (NCATS)

target-system: Rap guanine nucleotide exchange factor 3 (Homo sapiens) (UniProt O95398)
Sequence (O95398 whole entry, looked up): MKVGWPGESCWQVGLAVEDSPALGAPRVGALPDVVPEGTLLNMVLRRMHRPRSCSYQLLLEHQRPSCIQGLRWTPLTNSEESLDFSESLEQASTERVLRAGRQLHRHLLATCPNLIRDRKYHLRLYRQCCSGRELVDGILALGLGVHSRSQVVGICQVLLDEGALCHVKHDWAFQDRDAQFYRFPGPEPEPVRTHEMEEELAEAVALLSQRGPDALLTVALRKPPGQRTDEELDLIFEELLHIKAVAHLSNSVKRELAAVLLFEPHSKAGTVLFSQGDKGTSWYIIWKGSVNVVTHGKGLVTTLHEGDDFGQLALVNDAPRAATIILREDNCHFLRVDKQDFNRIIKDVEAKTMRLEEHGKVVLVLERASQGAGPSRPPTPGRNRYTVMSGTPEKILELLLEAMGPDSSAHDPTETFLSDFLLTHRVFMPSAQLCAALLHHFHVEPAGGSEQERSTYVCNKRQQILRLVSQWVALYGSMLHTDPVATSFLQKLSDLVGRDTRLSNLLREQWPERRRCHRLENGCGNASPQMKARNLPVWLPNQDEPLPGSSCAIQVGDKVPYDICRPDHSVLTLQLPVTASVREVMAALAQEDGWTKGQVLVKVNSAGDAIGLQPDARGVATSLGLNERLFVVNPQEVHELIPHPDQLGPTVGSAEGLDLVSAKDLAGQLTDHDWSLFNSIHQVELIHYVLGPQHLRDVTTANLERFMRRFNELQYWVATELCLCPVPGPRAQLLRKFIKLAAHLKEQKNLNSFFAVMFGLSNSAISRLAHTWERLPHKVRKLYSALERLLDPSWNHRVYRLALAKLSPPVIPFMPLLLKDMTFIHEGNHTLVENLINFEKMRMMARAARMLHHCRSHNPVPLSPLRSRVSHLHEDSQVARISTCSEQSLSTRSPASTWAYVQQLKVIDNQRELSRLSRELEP
protocol-summary: Confirmatory qHTS for antagonist of cAMP-regulated guanine nucleotide exchange factor 3 (EPAC1) (AID 1645880); further: nearly all actives have a fitted effect of over 55% in size
measurement-conditions: EPAC1 Rap1B-BODIPY-GDP exchange, fluorescence
Results filed as inconclusive are left out. Calls of active or inactive are those of the source. The call rests on the fitted dose curve; in most records, active means well fitted inhibition curve with a large enough effect; inconclusive means small, poorly fitted or top-dose-only effect; inactive means no such curve, though single readings can be large or run the other way.
API: response.call in active, inactive

Use the examples below as a reference point.
COc1ccccc1NC(=O)CSc1nc2sc(C)c(C)c2c(=O)n1C ... inactive
CCOC(=O)C1CCCN(C(=O)C2(c3ccc(Cl)cc3)CCCC2)CC1 (configuration not stated) ... inactive
COc1ccc2[nH]cc(CCNc3ncncc3-c3ccccc3Cl)c2c1 ... inactive

Query: Recorded test outcome, item O=C1c2cccc3c(N4CCCCC4)ccc(c23)C(=O)N1c1ccccc1O
Response: inactive

Query: Please share the test call associated with O=C1/C(=C\c2ccc(Br)cc2)SC(=S)N1NS(=O)(=O)c1ccccc1 .
Response: active

Query: How was Cc1ccc(N=Cc2c(O)n(-c3nccs3)c(=O)c3ccccc23)c(C)c1 classified in this test?
Response: inactive

Query: For this compound, state the assay outcome: O=C(CN1C(=O)c2ccccc2C1=O)Nc1cc([N+](=O)[O-])ccc1O
Response: inactive

Query: Tell me the recorded outcome of this test for CCN(CC)C(=O)c1ccc(/C=C/c2c[nH]c3ccccc23)[n+](C)c1 .
Response: inactive

Query: Record request — test call for CCCN(CC1CC1)c1cc2c(c3c1ccn3C)C1CCC2C1 (configuration not stated)
Response: inactive

Query: Please share the test call associated with Cc1ccc(C)c(S(=O)(=O)N2CCN(C(=O)CCc3nc4ccccc4c(=O)[nH]3)CC2)c1 .
Response: inactive

Query: Hey, what did the test say about Cc1c(Cl)cccc1NC(=O)Nc1cccnc1 ?
Response: inactive

Query: // outcome(item) with item = O=c1oc2cc(O)ccc2cc1-c1nc2c(s1)CCc1ccccc1-2
Response: inactive

Query: // param item: CCCCCCOC(=O)C(C#N)c1nc2ccccc2nc1N1CCCCC1 (configuration not stated) ; yields the recorded call
Response: inactive

Query: Could you check what this test reported for CC(OC(=O)/C(C#N)=C/c1ccc(N(C)C)cc1)C(=O)N(C)c1ccccc1 (configuration not stated) ?
Response: inactive

Query: // param item: O=C(O)c1ccccc1N=N/C(=N/Nc1cc(S(=O)(=O)O)ccc1O)c1ccccc1 ; yields the recorded call
Response: active

Query: Just curious, what result did COC(=O)c1ccccc1NC(=O)c1nn(-c2ccc(OC)cc2)c(=O)c2c1c1ccccc1n2C get here?
Response: inactive

Query: # outcome recorded in this test, key = O=C(Nc1cccc(Cl)c1N1CCOCC1)c1cccs1
Response: inactive

Query: I'd appreciate the recorded outcome for COc1ccc(OCC(=O)OCCNC(=O)c2cccnc2)cc1 from this test.
Response: inactive

---

target-system: Rap guanine nucleotide exchange factor 3 (Homo sapiens)
protocol-summary: Counterscreen qHTS for antagonist of cAMP-regulated guanine nucleotide exchange factor 3 (EPAC1) (AID 1645888);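 further: fluorescence loss as bound BODIPY-GDP is released from Rap1B; % of control where 0% means no effect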
measurement-conditions: Rap1B-BODIPY-GDP nucleotide exchange, fluorescence; series mostly up to 154 µM
Inconclusive results are not listed. Active and inactive are the calls of the source. The call rests on the fitted dose curve; in most records, active means well fitted inhibition curve with a large enough effect; inconclusive means small, poorly fitted or top-dose-only effect; inactive means no such curve, though single readings can be large or run the other way.
attribute-measured: activity change, negative = inhibition

# annotated cases, reported activity change, negative = inhibition shown
O=S(=O)(Nc1cc(Sc2ncn[nH]2)c(O)c2ccccc12)c1ccccc1 ... 3.32% [at 30.8 µM] (inactive)
CCCCn1c(=O)[nH]c2nc3cc(N)ccc3nc2c1=O ... 79.1% [at 30.8 µM] (inactive)
N#C/C(=C\c1ccc(OCc2ccc(C(=O)O)cc2)cc1)C(=O)N1CCOCC1 ... inactive
O=C1/C(=C\c2cccnc2)Sc2ccccc21 ... inactive
O=C1CC(=O)Nc2cc(S(=O)(=O)Nc3ccc(Cl)c(C(F)(F)F)c3)ccc2N1 ... inactive

Query: Find the measured activity change, negative = inhibition: item CCn1c(=O)c2sccc2n2c(CCCC(=O)N3CCN(c4cc(Cl)ccc4C)CC3)nnc12 , target or system Rap guanine nucleotide exchange factor 3 (Homo sapiens).
Response: inactive

Query: What reported activity change, negative = inhibition corresponds to COCOCCn1cc(CN2CCS(=O)(=O)N(Cc3ccc(-c4ccccc4)cc3)C(CC(C)C)C2=O)nn1 (configuration not stated) on Rap guanine nucleotide exchange factor 3 (Homo sapiens)?
Response: -6.67% [at 30.8 µM] (inactive)

Query: Recorded activity change, negative = inhibition for COc1ccc(-c2ccc(C(=O)NC(C)C)c3occc23)c(C)c1 with Rap guanine nucleotide exchange factor 3 (Homo sapiens), please?
Response: inactive

Query: So what activity change, negative = inhibition did C/C(=N\NC(=O)c1ccc(O)cc1)c1cccc(NC(=O)c2ccc(Cl)cc2)c1 get with Rap guanine nucleotide exchange factor 3 (Homo sapiens)?
Response: inactive

Query: Param readout = activity change, negative = inhibition; param system = Rap guanine nucleotide exchange factor 3 (Homo sapiens); param query = O=C(O)CC/C(=C\c1ccc(N2CCCC2)c([N+](=O)[O-])c1)c1nc2ccccc2s1 ; response: value
Response: inactive
